tested on: MCF7; assay: Cytotoxicity against human MCF7 cells assessed as survival at 4 uM after 24 hrs by MTT assay; assay type: functional; conditions: MCF7, 24 h, read-out: Survival
Criterion: viability at 4 µM strictly less than 60%. Met: true. Not met: false.

Examples from the recorded data:
COc1cc2c(cc1OCCCCC#Cc1ccccc1C#Cc1ccccc1)N=C[C@@H]1CCCN1C2=O
false
COc1cc2c(cc1O)N=C[C@@H]1CCCN1C2=O
false
COc1cc2c(cc1OCC=CCOCCC#Cc1ccccc1C#Cc1ccccc1)N=C[C@@H]1CCCN1C2=O
false

QUERY: Answer whether the molecule "COc1cc2c(cc1OC/C=C\COCC#Cc1ccccc1C#Cc1ccccc1)N=C[C@@H]1CCCN1C2=O" has viability at 4 µM strictly less than 60%
RESULT: true

QUERY: Answer whether the molecule "COc1cc2c(cc1OC/C=C/COCC#Cc1ccccc1C#Cc1ccccc1)N=C[C@@H]1CCCN1C2=O" has viability at 4 µM strictly less than 60%
RESULT: false

QUERY: Answer whether the molecule "COc1cc2c(cc1OCCCC#Cc1ccccc1C#Cc1ccccc1)N=C[C@@H]1CCCN1C2=O" has viability at 4 µM strictly less than 60%
RESULT: true

QUERY: Answer whether the molecule "COc1cc2c(cc1OCC#Cc1ccccc1C#Cc1ccccc1)N=C[C@@H]1CCCN1C2=O" has viability at 4 µM strictly less than 60%
RESULT: true
